- METHOD: HepG2 cell cytotoxicity, ATP decrease
- Assay type: cell-based
- CONDITION LABEL: human
Where a name gives a salt, the structure may show the parent alone.
Below, each entry is listed alongside its reported EC50.

1) CC[C@H]1[C@@H](O)[C@@H]2[C@H](C[C@H](O)[C@]3(C)[C@@H]([C@H](C)CCCS(=O)(=O)[O-])CC[C@@H]23)[C@@]2(C)CC[C@@H](O)C[C@@H]12.[Na+] [Compound 3A, Sodium Salt] :: > 1000 µM

With those in mind, consider the next compound.
Q: Return EC50 (reported value) for this compound: CCC1C(O)C2C3CCC(C(C)CC(C)OS(=O)(=O)O)C3(C)CCC2C2(C)CCC(O)CC12 (centres unmarked) [Compound 2A, Sodium Salt]
Result: > 1000 µM
